# Tested on: Alpha-2B adrenergic receptor (Homo sapiens)
# Assay notes: Agonist activity at human alpha2B adrenoceptor expressed in CHO cells assessed as extracellular acidification by cytosensor microphysiometry

Line notation: c1ccc(C2CC2)c(OCC2=NCCN2)c1
EC50, nM: 1000

---

# Tested on: Alpha-2B adrenergic receptor (Homo sapiens)
# Sequence (P18089 whole entry): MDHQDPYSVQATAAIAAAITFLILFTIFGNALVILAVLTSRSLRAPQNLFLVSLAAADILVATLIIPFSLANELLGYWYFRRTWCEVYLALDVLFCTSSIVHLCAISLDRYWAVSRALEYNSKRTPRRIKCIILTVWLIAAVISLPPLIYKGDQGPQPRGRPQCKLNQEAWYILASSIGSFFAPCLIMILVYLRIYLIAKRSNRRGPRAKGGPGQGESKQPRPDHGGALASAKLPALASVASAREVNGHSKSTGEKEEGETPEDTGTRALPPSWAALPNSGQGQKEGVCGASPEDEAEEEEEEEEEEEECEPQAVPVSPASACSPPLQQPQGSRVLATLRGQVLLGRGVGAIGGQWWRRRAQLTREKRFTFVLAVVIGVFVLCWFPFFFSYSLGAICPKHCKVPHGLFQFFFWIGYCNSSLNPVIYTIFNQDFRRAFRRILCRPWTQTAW
pKi: −log10 of the molar value.

Line notation: c1ccc(C2CC2)c(OCC2=NCCN2)c1
pKi: 6.28

---

# Tested on: Alpha-2C adrenergic receptor (Homo sapiens, UniProt P18825)
# Assay notes: Agonist activity at human Alpha-2C adrenoceptor expressed in CHO cells assessed as extracellular acidification by cytosensor microphysiometry
pEC50: −log10 of the molar value.

Compound: c1ccc(C2CC2)c(OCC2=NCCN2)c1 [CIRAZOLINE]
pEC50: 6.40

---

# Tested on: UniProtKB P08913
# Sequence (P08913 whole entry): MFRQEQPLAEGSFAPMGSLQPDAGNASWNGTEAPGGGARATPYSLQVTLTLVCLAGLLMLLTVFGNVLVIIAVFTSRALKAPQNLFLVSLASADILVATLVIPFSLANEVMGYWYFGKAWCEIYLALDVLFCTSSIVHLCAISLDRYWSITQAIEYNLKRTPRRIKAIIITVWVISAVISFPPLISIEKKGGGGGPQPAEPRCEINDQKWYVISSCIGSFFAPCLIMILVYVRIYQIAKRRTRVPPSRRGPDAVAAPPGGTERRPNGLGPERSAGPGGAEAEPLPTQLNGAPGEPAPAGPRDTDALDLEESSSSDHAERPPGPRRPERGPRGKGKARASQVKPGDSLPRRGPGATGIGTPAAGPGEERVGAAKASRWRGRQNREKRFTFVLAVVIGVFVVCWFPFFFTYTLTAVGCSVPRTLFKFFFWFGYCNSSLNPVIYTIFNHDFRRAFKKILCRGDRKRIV
pKi: −log10 of the molar value.

Line notation: c1ccc(C2CC2)c(OCC2=NCCN2)c1
pKi: 7.23

---

# Tested on: UniProt P18825
# Sequence (P18825 whole entry): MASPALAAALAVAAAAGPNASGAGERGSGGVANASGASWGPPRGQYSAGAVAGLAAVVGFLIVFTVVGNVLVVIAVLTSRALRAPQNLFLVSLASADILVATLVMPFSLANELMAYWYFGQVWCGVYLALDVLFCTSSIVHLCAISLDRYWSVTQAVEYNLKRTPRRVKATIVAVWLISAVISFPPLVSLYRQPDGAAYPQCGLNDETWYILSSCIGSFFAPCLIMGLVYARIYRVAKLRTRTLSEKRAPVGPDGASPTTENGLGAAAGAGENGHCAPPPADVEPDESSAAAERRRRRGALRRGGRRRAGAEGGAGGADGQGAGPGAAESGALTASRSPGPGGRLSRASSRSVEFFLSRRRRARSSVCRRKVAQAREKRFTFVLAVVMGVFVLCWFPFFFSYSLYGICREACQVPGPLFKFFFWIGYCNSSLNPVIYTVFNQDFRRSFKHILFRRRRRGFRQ

Line notation: c1ccc(C2CC2)c(OCC2=NCCN2)c1
Reading unit: µM
Ki: 0.55

Entry source: ChEMBL document CHEMBL1156735
